Below are Ki values recorded for Ras-related C3 botulinum toxin substrate 1 (Homo sapiens).
Write the number in nM without appending the unit.

Sample records with Ki:
smiles_representation=O=C1N=c2ccccc2=C1c1[nH]c(=S)[nH]c1O parameter_measured=Ki units_of_measure=nM observed=160
smiles_representation=COc1ccc(S(=O)(=O)n2c(N)c(C#N)c(-c3cncc(Br)c3)c2C(=O)c2ccccc2)cc1 parameter_measured=Ki units_of_measure=nM observed=920
smiles_representation=COc1cc(-c2c(C#N)c(N)n(S(=O)(=O)c3c(C(C)C)cc(C(C)C)cc3C(C)C)c2C(=O)c2ccccc2)cc(OC)c1OC parameter_measured=Ki units_of_measure=nM observed=7040
smiles_representation=CSc1ccc(/C=C2/C(C)=C(CC(=O)O)c3cc(F)ccc32)cc1 parameter_measured=Ki units_of_measure=nM observed=5110
smiles_representation=O=C1C(c2c(O)[nH]c3c(F)cccc23)=Nc2ccccc21 parameter_measured=Ki units_of_measure=nM observed=3230

Q: # get_value(readout='Ki', item= O=C1C(c2c(O)[nH]c3ccc(Br)cc23)=Nc2ccccc21 )
Ans: 1510

Q: Another: O=C1Nc2cccc(Br)c2/C1=C1/Cc2ccccc2C1=O
Ans: 1130

Q: Try this compound next: O=C1N=c2ccccc2=C1c1[nH]c(=O)[nH]c1O
Ans: 250

###

Target Of Assay: Ras-related C3 botulinum toxin substrate 1 (Homo sapiens)
Assay: analog inhibition of wildtype Rac1 nucleotide loading – biochemical, additional analogs, multiplex bead flow cytometry, SAR follow-up (AID 2040)
Assay Conditions: Rac1 GTP binding
Calls of active or inactive are those of the source. The rule behind the calls is not given here.
Parameter Measured: EC50

Examples with their reported EC50 follow.
smiles_representation=O=C1C(c2c(O)[nH]c3c(F)cccc23)=Nc2ccccc21 parameter_measured=EC50 observed=inactive
smiles_representation=O=Nc1c(-c2c(O)[nH]c3c(Cl)cccc23)[nH]c2ccccc12 parameter_measured=EC50 observed="> 30 µM (inactive)"
smiles_representation=O=Nc1c(-c2c(O)[nH]c3c(Br)cccc23)[nH]c2ccccc12 parameter_measured=EC50 observed="> 30 µM (inactive)"
smiles_representation=O=C1N=c2ccccc2=C1c1[nH]c(=S)[nH]c1O parameter_measured=EC50 observed=inactive
smiles_representation=O=Nc1c(-c2c(O)[nH]c3c(F)cccc23)[nH]c2ccccc12 parameter_measured=EC50 observed="> 30 µM (inactive)"

Please look at the following compound next.
Q: Which measured EC50 value corresponds to O=C1C(c2c(O)[nH]c3ccc(Br)cc23)=Nc2ccccc21 ?
Ans: inactive
